// provenance: patent US4042711A

Assay: Acute toxicity, oral
Type: in vivo
Settings: mouse, in vivo, white mice, observation time 14 days
Measurement name: LD50 at 336 h (mg/kg)
The reply should contain only the number, in mg/kg.

- Compound: "COC(=O)C(C)(C)Oc1ccc(-c2ccc(Cl)cc2)cc1 [D]"
  LD50 at 336 h [mg/kg]: 5000

// below: LD50 at 336 h requested for another compound
Exam item: Which LD50 at 336 h value belongs to CCOC(=O)C(C)(C)Oc1ccc(CCNC(=O)c2cc(Cl)ccc2OC)cc1 [E] ?
Marked response: 2500

* * *

Tested on: white mice
Experiment: Acute toxicity, oral
Format: in vivo
Details: 14 days, at the dose given as LD50
Protocol: The above pharmacologicaly activity of the compounds of this invention, as well as their acute toxicities, were ascertained along with those of the three antihyperlipidemic compounds of the prior art by the standard test methods described below. The acute toxicity was determined on groups of 5 or 6 white mice each, after oral administration of the test compound at dosage levels of 2.5 gm/kg, 5 gm/kg and 10 gm/kg (observation time 14 days).
# animals died per entry

Exam item: Which animals died value belongs to CCOC(=O)C(C)(C)Oc1ccc(CCNC(=O)c2cc(Cl)ccc2OC)cc1 ?
Marked response: 3 out of 6
